TEST_SYSTEM: UniProt Q86YT5
Sequence (Q86YT5 whole entry): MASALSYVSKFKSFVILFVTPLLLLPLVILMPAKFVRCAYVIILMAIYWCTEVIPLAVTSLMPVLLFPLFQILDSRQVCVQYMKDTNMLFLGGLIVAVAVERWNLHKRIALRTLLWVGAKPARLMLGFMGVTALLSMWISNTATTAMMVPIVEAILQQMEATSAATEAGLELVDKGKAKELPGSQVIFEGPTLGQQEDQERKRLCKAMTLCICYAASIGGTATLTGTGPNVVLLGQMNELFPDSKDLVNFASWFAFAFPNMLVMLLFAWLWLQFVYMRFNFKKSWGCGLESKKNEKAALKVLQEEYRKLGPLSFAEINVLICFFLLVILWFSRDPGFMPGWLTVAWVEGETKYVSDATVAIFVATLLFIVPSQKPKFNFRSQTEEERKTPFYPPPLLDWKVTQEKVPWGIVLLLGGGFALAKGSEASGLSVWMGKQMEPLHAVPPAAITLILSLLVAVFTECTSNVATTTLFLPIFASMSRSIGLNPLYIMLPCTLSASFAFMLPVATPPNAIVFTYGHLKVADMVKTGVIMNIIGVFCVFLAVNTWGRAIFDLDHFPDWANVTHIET
PROCEDURE_SUMMARY: 14C-citrate uptake in HepG2 cells endogenously expressing INDY (NaCT)
Format: cell-based
ASSAY_SETUP: endogenous INDY
QUANTITY_NAME: IC50 (µM)

Answered cases to consult:
O=C(NCc1ccccn1)C1CCN(S(=O)(=O)c2cc(Cl)ccc2Cl)CC1 [Example 62]	4.6
O=C(NCc1ccccc1F)C1CN(S(=O)(=O)/C=C/c2ccccc2)C1 [Example 1]	5.4
COc1ccccc1CNC(=O)C1CCN(S(=O)(=O)/C=C/c2ccccc2)CC1 [Example 15]	2.7
CCc1ccc(S(=O)(=O)N2CCC(C(=O)NCc3ccccc3F)CC2)cc1 [Example 34]	4.5
O=C(NCc1ccccn1)C1CCN(S(=O)(=O)c2cccc(C(F)(F)F)c2)CC1 [Example 75]	3.3

(P) O=C(NCc1ccccn1)C1CCN(S(=O)(=O)c2ccc(C3CC3)cc2)CC1 [Example 97]
(Q) O=C(NCc1ccccn1)C1CCN(S(=O)(=O)c2cc(C(F)(F)F)cc(C(F)(F)F)c2)CC1 [Example 127]
Lab log: flag the item ( P or Q ) with the smaller IC50 figure. # answer = label of selected item Q
